# assayed_target: F508del‐CFTR (Homo sapiens, UniProt P13569, DEL508-508)
# Sequence (P13569 with tags, fused parts or gaps DEL508-508): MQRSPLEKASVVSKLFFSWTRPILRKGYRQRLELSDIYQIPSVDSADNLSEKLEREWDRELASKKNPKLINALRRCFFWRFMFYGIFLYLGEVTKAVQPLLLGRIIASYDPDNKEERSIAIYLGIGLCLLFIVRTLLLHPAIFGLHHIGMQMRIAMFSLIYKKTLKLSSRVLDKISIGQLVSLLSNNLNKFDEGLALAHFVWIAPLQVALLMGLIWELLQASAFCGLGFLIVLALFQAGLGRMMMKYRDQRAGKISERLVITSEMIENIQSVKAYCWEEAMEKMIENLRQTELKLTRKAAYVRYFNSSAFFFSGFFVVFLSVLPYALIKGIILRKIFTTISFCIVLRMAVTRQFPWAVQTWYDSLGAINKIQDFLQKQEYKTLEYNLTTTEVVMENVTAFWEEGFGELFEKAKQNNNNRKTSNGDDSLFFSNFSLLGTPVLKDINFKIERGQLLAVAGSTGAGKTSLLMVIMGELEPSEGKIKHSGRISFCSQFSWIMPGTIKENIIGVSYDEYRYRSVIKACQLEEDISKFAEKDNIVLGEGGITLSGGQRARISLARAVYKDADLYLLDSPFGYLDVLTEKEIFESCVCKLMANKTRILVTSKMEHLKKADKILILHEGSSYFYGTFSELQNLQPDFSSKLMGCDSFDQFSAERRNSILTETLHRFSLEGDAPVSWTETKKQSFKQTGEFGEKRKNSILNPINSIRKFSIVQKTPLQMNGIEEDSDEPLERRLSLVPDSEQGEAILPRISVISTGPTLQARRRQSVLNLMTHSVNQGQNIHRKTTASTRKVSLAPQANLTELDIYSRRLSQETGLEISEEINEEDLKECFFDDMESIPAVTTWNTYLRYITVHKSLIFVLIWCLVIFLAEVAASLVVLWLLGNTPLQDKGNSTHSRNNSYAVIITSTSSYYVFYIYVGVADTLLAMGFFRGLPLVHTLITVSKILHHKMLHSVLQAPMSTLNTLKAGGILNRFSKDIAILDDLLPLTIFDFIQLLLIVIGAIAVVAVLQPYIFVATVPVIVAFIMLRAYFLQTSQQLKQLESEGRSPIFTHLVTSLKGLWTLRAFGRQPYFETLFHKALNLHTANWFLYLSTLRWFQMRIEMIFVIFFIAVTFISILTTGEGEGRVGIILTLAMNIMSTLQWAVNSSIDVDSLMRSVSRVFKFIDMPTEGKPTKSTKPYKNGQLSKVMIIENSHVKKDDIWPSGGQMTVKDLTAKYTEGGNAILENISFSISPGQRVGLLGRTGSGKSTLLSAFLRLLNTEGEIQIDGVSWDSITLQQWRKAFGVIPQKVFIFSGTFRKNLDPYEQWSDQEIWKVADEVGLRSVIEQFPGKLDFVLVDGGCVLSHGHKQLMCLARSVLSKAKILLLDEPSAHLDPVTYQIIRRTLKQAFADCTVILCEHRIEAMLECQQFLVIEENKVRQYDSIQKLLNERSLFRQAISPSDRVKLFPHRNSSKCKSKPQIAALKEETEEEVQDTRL
# protocol: Single-channel recording in excised inside-out membrane patches, F508del‐CFTR
# Type: biochemical
# Parameters: expressed in transfected cells; BHK cells from MD Amaral
# condition: F508del‐CFTR Cl− channels; excised inside-out patches; 23°C; data normalised to ivacaftor 1 μM; read-out: EC50 (μM) (95% CI)
List of EC50 values.
Reply with just the number (in µM).

1. Cc1ncccc1CNC(=O)c1ccc2c(c1)CC[C@H]1C[C@](O)(CCC(F)(F)F)CC[C@]21Cc1ccccc1 (racemic)
0.5

## Input State EC50 (F508del‐CFTR (Homo sapiens, UniProt P13569, DEL508-508)) of CC(C)(C)c1cc(C(C)(C)C)c(NC(=O)c2c[nH]c3ccccc3c2=O)cc1O [ivacaftor, reference compound] .
## Output 0.008

====

# assayed_target: F508del‐CFTR (Homo sapiens, UniProt P13569, DEL508-508)
# protocol: Fluorescence-based halide flux assay (I−-induced quenching of YFP fluorescence) in FRT cells
# Type: cell-based
# condition: FRT cells co-expressing low temperature-rescued F508del‐V470‐CFTR and YFP; forskolin 20 μM; scaled to DMSO 0% and genistein 50 μM 100%; exploratory data; read-out: EC50 for potentiation of CFTR-mediated anion transport
endpoint_name: pEC50
In simple prose, pEC50 is minus the logarithm base ten of a concentration in moles per litre.

## Input Give the measured pEC50 for Cc1ncccc1CNC(=O)c1ccc2c(c1)CC[C@H]1C[C@](O)(CCC(F)(F)F)CC[C@]21Cc1ccccc1 (racemic)
## Output 6.40

====

# assayed_target: wild‐type CFTR (Homo sapiens)
# Sequence (P13569 whole entry): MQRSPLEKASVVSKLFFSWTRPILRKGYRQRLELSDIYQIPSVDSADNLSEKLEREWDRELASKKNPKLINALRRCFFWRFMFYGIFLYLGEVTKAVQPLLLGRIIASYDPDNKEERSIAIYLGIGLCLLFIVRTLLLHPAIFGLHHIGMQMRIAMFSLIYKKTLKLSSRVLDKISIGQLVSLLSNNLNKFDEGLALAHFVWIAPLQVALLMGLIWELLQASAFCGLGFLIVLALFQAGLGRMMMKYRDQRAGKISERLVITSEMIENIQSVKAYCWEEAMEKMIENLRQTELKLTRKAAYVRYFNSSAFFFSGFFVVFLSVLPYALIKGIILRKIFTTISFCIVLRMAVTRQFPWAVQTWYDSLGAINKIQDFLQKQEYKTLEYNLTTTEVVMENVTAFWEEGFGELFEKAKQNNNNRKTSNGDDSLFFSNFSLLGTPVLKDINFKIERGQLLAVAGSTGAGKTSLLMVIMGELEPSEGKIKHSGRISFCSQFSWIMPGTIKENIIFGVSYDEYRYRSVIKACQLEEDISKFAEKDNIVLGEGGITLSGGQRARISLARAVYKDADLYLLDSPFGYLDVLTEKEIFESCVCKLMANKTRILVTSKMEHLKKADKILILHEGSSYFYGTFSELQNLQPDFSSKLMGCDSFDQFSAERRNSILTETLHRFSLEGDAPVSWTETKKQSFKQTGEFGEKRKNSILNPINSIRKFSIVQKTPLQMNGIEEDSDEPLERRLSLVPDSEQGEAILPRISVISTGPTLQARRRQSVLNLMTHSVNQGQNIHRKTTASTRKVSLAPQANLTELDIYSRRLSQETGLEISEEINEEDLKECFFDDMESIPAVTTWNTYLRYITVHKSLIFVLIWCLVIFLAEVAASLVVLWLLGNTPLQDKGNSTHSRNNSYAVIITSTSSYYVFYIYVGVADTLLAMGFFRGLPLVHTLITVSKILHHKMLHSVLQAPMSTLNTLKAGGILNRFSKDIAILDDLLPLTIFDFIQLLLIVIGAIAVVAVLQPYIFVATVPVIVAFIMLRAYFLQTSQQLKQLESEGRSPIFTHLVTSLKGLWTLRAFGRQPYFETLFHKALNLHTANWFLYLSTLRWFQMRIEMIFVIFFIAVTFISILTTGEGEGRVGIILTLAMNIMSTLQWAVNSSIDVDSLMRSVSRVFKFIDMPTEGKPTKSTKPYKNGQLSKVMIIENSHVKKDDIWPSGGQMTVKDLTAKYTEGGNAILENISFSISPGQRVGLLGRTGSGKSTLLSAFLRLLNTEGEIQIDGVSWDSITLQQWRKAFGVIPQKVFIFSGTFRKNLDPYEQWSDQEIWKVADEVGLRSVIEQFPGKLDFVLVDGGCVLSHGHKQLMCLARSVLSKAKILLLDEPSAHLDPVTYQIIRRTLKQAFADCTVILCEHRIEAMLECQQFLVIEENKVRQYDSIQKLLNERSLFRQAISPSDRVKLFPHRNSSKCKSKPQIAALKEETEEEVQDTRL
# protocol: Single-channel recording in excised inside-out membrane patches, wild-type CFTR
# condition: ATP 0.3 mM, PKA 75 nM, ~23°C, read-out: EC50 for potentiation of Po
# Excerpt: For CFTR studies using automated electrophysiology and single-channel recording, we used baby hamster kidney (BHK) cells (RRID:CVCL_1915) and human embryonic kidney (HEK) 293 cells (RRID:CVCL_0045) stably expressing wild-type human CFTR and the CFTR variants F508del- and […] et al., [2002]; Xu et al., [2014]). […] Therefore, Po values for G551D-CFTR are expressed as apparent Po (Po(app)) values. […]
endpoint_name: EC50 (nM)
Output spec: scalar in nM, unitless text.

## Input Give recorded EC50. CC(C)(C)c1cc(C(C)(C)C)c(NC(=O)c2c[nH]c3ccccc3c2=O)cc1O [ivacaftor, reference compound]
## Output 0.21

## Input Report EC50 for Cc1ncccc1CNC(=O)c1ccc2c(c1)CC[C@H]1C[C@](O)(CCC(F)(F)F)CC[C@]21Cc1ccccc1 (racemic)
## Output 24

====

# assayed_target: G551D‐CFTR (Homo sapiens, UniProt P13569, G551D)
# Sequence (P13569 whole entry G551D): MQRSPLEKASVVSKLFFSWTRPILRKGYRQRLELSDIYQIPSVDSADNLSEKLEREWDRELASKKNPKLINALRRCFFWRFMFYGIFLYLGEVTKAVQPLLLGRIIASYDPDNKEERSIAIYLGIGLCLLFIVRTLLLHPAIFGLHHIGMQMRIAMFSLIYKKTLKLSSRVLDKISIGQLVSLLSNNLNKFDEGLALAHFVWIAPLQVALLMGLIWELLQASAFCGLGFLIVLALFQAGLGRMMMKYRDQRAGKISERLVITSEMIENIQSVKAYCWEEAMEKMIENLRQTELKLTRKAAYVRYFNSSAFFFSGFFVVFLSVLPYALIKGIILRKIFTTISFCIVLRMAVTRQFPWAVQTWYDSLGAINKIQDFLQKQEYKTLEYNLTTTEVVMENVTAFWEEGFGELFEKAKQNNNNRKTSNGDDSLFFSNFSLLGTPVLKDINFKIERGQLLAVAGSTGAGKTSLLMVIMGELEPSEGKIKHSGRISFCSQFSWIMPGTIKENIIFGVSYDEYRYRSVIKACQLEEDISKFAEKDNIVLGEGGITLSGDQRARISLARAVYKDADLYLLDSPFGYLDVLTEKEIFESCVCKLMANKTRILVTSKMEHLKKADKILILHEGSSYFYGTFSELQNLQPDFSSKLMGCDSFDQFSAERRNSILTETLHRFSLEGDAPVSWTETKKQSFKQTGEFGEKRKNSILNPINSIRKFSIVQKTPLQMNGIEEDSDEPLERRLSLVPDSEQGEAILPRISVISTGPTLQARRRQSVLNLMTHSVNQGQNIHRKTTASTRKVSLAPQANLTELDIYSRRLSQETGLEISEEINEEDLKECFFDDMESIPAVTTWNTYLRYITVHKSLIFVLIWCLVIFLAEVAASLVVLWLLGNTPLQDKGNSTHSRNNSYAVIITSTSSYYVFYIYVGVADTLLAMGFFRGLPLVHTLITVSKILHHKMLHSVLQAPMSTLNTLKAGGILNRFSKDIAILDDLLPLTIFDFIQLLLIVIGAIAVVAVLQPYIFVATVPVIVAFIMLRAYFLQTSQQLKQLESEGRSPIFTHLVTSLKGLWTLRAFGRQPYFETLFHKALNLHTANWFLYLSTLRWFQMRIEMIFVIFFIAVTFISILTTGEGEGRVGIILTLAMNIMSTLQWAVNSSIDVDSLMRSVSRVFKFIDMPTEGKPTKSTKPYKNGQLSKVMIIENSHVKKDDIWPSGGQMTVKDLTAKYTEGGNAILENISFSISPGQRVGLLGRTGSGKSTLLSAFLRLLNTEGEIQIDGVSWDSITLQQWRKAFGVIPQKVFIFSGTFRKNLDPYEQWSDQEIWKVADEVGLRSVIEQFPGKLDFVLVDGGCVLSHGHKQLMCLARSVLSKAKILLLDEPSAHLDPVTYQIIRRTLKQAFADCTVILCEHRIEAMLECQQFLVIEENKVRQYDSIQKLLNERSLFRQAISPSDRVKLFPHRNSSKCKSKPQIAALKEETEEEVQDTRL
# protocol: Automated planar patch-clamp whole-cell Cl− currents in HEK cells
# Format: cell-based
# Parameters: expressed in transfected cells
# condition: G551D‐CFTR HEK cells; whole-cell currents; automated electrophysiology; 23°C; read-out: EC50 (μM) (95% CI)
Measured EC50 accompanies every entry in the list below.
Note to self: number, then unit, no commentary.

1. CC(C)(C)c1cc(C(C)(C)C)c(NC(=O)c2c[nH]c3ccccc3c2=O)cc1O [ivacaftor, reference compound]
0.82 µM

## Input Supply measured EC50 of Cc1ncccc1CNC(=O)c1ccc2c(c1)CC[C@H]1C[C@](O)(CCC(F)(F)F)CC[C@]21Cc1ccccc1 (racemic) [CP‐628006] in your reply.
## Output 5.13 µM

====

# assayed_target: F508del‐CFTR (Homo sapiens, UniProt P13569, DEL508-508)
# protocol: Single-channel recording in excised inside-out membrane patches, F508del‐CFTR
# Type: biochemical
# Design: expressed in transfected cells; BHK cells from MD Amaral
# condition: low temperature-rescued F508del‐CFTR; ATP 1 mM, PKA 75 nM; ~23°C; read-out: EC50 for potentiation of Po
endpoint_name: pEC50
// pEC50: -log10(molar conc.)

1. CC(C)(C)c1cc(C(C)(C)C)c(NC(=O)c2c[nH]c3ccccc3c2=O)cc1O [ivacaftor, reference compound]
8.00

## Input Supply measured pEC50 of Cc1ncccc1CNC(=O)c1ccc2c(c1)CC[C@H]1C[C@](O)(CCC(F)(F)F)CC[C@]21Cc1ccccc1 (racemic) in your reply.
## Output 6.40

Entry source: paper PMC9304199
